Target: Adenosine receptor A1 (Homo sapiens)
Experiment: Displacement of [3H]CCPA from human adenosine receptor A1 expressed in CHO cell membranes after 3 hrs by microbeta scintillation counting method
For each entry below, report its pKi value.
Just so you know, pKi here is -log10 of the concentration in molar units; reply with that number alone.

Entry Nc1ccc(-n2nc3c(N)nc(-c4ccccc4)cn3c2=O)cc1 : reported pKi = ?
8.05

Check O=c1[nH]c(-c2cccc(O)c2)cn2c(=O)n(-c3ccccc3)nc12 too.
6.16

Now give it for Nc1nc(-c2ccc(O)cc2)cn2c(=O)n(-c3ccccc3)nc12 too.
7.35

Could you do the same for COc1ccccc1-n1nc2c(N)nc(-c3ccccc3)cn2c1=O , please?
6.61

Ok, now COc1ccc(-n2nc3c(N)nc(-c4ccccc4)cn3c2=O)cc1
7.70

Moving on to the next compound: Nc1nc(-c2ccccc2)cn2c(=O)n(-c3ccccc3)nc12
7.89

* * *

Please consider the recorded Ki for Adenosine receptor A3 (Homo sapiens) in what follows.
Quick reminder: number only, in nM, skip the unit.

Find the recorded Ki belonging to C#CCOc1cccc(-c2cn3c(=O)n(-c4ccccc4)nc3c(N)n2)c1 and report it.
67

Now this one: Cc1cn2c(=O)n(-c3ccccc3)nc2c(=O)[nH]1
60

Now this one: COc1ccc(-n2nc3c(=O)[nH]c(-c4ccccc4)cn3c2=O)cc1
214

Proceed to O=c1[nH]c(-c2cccc(O)c2)cn2c(=O)n(-c3ccccc3)nc12
1050

Another molecule to look at: Nc1nc(-c2ccccc2)cn2c(=O)n(-c3ccc(O)cc3)nc12
429

// same read-out, input: Cc1cn2c(=O)n(-c3ccccc3)nc2c(N)n1
4370

What about this molecule? O=c1[nH]c(-c2ccccc2)cn2c(=O)n(-c3ccccc3O)nc12
21600

Lookup Cc1cn2c(=O)n(-c3ccc(O)cc3)nc2c(N)n1
5160

Cool, now COc1cccc(-c2cn3c(=O)n(-c4ccccc4)nc3c(N)n2)c1
42

And the next one, COc1ccc(-n2nc3c(=O)[nH]c(C)cn3c2=O)cc1 ?
50

Can you handle Nc1nc(-c2cccc(O)c2)cn2c(=O)n(-c3ccccc3)nc12 next?
134

Query Nc1nc(-c2ccccc2)cn2c(=O)n(-c3ccccc3O)nc12 next
1560

// next record O=c1[nH]c(-c2ccccc2)cn2c(=O)n(-c3ccccc3)nc12
96

* * *

Could you please report measured Ki for the items listed next?
Target: UniProt P30542
Sequence (P30542 whole entry): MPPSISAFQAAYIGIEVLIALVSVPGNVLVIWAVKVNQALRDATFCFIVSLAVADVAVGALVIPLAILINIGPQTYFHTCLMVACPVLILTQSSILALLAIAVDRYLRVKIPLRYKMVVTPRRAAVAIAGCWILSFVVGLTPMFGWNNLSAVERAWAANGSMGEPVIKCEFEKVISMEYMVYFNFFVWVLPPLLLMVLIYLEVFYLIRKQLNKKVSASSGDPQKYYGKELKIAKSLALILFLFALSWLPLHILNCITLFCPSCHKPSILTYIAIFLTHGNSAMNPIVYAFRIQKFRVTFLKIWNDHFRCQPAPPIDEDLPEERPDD
Write the value in nM as a bare number.

Would you mind telling me what Ki value was observed for O=c1[nH]c(-c2ccccc2)cn2c(=O)n(-c3ccc(O)cc3)nc12 ?
129

O=c1[nH]c(-c2ccc(O)cc2)cn2c(=O)n(-c3ccccc3)nc12 , same question.
616

Another molecule to check: Nc1nc(-c2ccccc2)cn2c(=O)n(-c3ccc(O)cc3)nc12
18

Okay, and Nc1nc(-c2ccc(OCc3ccccc3)cc2)cn2c(=O)n(-c3ccccc3)nc12 ?
3700

* * *

Target: Adenosine receptor A2a (Homo sapiens, UniProt P29274)
Sequence (P29274 whole entry): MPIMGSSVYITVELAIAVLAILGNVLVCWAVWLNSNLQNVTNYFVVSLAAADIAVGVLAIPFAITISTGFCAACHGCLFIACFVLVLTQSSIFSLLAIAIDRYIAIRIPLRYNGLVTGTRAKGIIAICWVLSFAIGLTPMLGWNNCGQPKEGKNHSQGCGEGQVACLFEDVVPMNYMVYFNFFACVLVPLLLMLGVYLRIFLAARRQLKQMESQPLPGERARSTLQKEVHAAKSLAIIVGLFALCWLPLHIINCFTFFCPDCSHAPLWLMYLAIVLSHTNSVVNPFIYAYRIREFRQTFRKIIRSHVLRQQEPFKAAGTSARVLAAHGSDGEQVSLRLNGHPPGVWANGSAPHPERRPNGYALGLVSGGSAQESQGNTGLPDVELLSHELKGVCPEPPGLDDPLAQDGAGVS
Assay: Displacement of [3H]NECA from human adenosine receptor A2A expressed in CHO cell membranes after 3 hrs by microbeta scintillation counting method
measured quantity: pKi
Scale note: pKi = -log10(concentration in M).

Report pKi for Nc1nc(-c2ccc(O)cc2)cn2c(=O)n(-c3ccccc3)nc12 please.
7.35

Thanks! And Nc1nc(-c2cccc(O)c2)cn2c(=O)n(-c3ccccc3)nc12 ?
8.46

Param item: Cc1cn2c(=O)n(-c3ccc(O)cc3)nc2c(N)n1
5.88

Then Nc1nc(-c2ccccc2)cn2c(=O)n(-c3ccc([N+](=O)[O-])cc3)nc12 ?
6.40

Same for Nc1nc(-c2ccccc2)cn2c(=O)n(-c3ccccc3O)nc12
7.33

Try C#CCOc1cccc(-c2cn3c(=O)n(-c4ccccc4)nc3c(N)n2)c1 next.
8.29

* * *

System: Adenosine receptor A1 (Homo sapiens) | Read-out: Ki

Need Ki of Cc1cn2c(=O)n(-c3ccc(O)cc3)nc2c(N)n1 , thanks.
1 µM

# repeat for Cc1ccc(-c2cn3c(=O)n(-c4ccccc4)nc3c(N)n2)cc1
> 30 µM

Now the same for Nc1nc(-c2ccc(OCC3CC3)cc2)cn2c(=O)n(-c3ccccc3)nc12
> 30 µM

Follow-up item: COc1ccc(-c2cn3c(=O)n(-c4ccccc4)nc3c(=O)[nH]2)cc1
> 30 µM

Check COc1ccc(-n2nc3c(N)nc(C)cn3c2=O)cc1 too.
1.74 µM

Then this compound: Nc1nc(-c2ccc(OCC3CCC3)cc2)cn2c(=O)n(-c3ccccc3)nc12
> 30 µM
